# Tested target: BaEcR (GAL4-EcR DEF with VP16-RXR-USP chimera) (Bemisia tabaci)
# Sequence (A0A6M3RDR8 115-530): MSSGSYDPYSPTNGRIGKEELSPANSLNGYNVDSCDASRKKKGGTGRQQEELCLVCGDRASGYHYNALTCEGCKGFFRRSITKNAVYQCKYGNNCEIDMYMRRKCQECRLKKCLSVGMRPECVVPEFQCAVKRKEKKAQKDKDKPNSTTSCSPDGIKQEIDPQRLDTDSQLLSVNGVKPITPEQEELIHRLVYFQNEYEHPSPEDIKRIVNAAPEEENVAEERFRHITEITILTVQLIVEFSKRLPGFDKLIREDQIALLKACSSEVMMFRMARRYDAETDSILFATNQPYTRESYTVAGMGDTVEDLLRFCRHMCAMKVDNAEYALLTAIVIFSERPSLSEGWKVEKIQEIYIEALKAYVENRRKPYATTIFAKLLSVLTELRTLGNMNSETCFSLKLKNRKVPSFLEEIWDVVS
# Sequence (P28702 1-533 partner): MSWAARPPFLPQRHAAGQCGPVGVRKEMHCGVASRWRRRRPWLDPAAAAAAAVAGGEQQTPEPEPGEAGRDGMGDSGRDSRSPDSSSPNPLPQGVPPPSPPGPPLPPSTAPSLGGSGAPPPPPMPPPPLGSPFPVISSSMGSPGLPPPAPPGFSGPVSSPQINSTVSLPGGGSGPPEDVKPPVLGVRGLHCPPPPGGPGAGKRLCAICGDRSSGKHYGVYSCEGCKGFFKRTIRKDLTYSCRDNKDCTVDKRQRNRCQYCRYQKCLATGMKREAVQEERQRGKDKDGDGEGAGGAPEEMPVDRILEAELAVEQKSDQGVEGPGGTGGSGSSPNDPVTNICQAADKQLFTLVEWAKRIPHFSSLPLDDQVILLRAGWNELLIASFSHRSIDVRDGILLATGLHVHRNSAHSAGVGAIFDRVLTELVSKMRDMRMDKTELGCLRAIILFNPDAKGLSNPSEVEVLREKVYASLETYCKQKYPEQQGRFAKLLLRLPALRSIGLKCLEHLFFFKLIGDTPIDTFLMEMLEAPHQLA
# Measurement protocol: Two-hybrid gene switch assay, luciferase reporter, BaEcR, mouse NIH3T3 cells
# Test parameters: EC50, FIG. 14A/14B, GAL4-EcR(DEF) with VP16-RXR-USP chimera

[
  {
    "Molecule": "CC(C)(O)CC[C@@H](O)[C@](C)(O)[C@H]1CC[C@@]2(O)C3=CC(=O)[C@@H]4C[C@@H](O)[C@@H](O)[C@@H](O)[C@]4(C)[C@H]3CC[C@]12C [integristerone A]",
    "EC50": "~20 µM"
  },
  {
    "Molecule": "CC(C)(O)CCC(=O)[C@](C)(O)[C@H]1CC[C@@]2(O)C3=CC(=O)[C@@H]4C[C@@H](O)[C@@H](O)C[C@]4(C)[C@H]3CC[C@]12C [Compound 22-dehydro-20-hydroxyecdysone]",
    "EC50": "~12 µM"
  },
  {
    "Molecule": "CC(C)(O)CC[C@@H](O)[C@](C)(O)[C@H]1CC[C@@]2(O)C3=CC(=O)[C@@H]4C[C@@H](O)[C@@H](O)C[C@]4(C)[C@H]3CC[C@]12C [Compound 20-hydroxyecdysone]",
    "EC50": "~5 µM"
  },
  {
    "Molecule": "CC1(C)OC(=O)C=C1CC(O)C(C)(O)C1CCC2(O)C3=CC(=O)C4CC(O)C(O)CC4(C)C3CCC12C (centres unmarked) [carthamosterone]",
    "EC50": "> 33 µM"
  },
  {
    "Molecule": "CC(C)(O)C(CCC(C)(O)C1CCC2(O)C3=CC(=O)C4CC(O)C(O)CC4(C)C3CCC12C)OC(=O)c1ccc[nH]1 (centres unmarked) [canescensterone]",
    "EC50": "~0.2 µM"
  },
  {
    "Molecule": "CC(C)(O)CC[C@@H](O)[C@](C)(O)[C@H]1CC[C@@]2(O)C3=CC(=O)[C@H]4C[C@@H](O)[C@@H](O)C[C@]4(C)[C@H]3CC[C@]12C [(5a-H)-20-hydroxyecdysone]",
    "EC50": "> 33 µM"
  },
  {
    "Molecule": "CC(=O)C1CCC2(O)C3=CC(=O)C4CC(O)C(O)CC4(C)C3CCC12C (centres unmarked) [poststerone]",
    "EC50": "> 33 µM"
  },
  {
    "Molecule": "CC(C)(O)CC[C@@H](O)[C@](C)(O)[C@H]1CC[C@@]2(O)C3=CC(=O)[C@]4(O)C[C@@H](O)[C@@H](O)C[C@]4(C)[C@H]3CC[C@]12C [polypodine B]",
    "EC50": "~3.3 µM"
  },
  {
    "Molecule": "CC(C)(O)CC[C@H]1OC(C)(C)O[C@]1(C)[C@H]1CC[C@@]2(O)C3=CC(=O)[C@@H]4C[C@@H](O)[C@@H](O)C[C@]4(C)[C@H]3CC[C@]12C [20-hydroxyecdysone-20,22-acetonide]",
    "EC50": "> 33 µM"
  },
  {
    "Molecule": "C[C@H]([C@H](O)CCC(C)(C)O)[C@H]1CC[C@@]2(O)C3=CC(=O)[C@@H]4C[C@@H](O)[C@@H](O)C[C@]4(C)[C@H]3CC[C@]12C [ecdysone]",
    "EC50": "> 33 µM"
  },
  {
    "Molecule": "CCC(CC(O)C(C)(O)C1CCC2(O)C3=CC(=O)C4CC(O)C(O)CC4(C)C3CCC12C)C(C)(C)O (centres unmarked) [makisterone C]",
    "EC50": "~3.3 µM"
  }
]

###

# Tested target: TmEcR (GAL4-EcR DEF with VP16-RXR partner) (Tenebrio molitor)
# Sequence (O02035 194-491): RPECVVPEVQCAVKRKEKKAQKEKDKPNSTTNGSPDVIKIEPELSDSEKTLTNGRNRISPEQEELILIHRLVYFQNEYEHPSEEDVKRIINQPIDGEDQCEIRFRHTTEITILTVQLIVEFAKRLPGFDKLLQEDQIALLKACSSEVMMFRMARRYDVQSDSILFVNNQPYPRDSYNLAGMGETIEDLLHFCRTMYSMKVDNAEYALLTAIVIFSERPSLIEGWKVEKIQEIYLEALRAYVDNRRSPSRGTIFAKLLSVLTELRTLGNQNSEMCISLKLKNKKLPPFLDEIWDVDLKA
# Sequence (P28704 1-520 partner): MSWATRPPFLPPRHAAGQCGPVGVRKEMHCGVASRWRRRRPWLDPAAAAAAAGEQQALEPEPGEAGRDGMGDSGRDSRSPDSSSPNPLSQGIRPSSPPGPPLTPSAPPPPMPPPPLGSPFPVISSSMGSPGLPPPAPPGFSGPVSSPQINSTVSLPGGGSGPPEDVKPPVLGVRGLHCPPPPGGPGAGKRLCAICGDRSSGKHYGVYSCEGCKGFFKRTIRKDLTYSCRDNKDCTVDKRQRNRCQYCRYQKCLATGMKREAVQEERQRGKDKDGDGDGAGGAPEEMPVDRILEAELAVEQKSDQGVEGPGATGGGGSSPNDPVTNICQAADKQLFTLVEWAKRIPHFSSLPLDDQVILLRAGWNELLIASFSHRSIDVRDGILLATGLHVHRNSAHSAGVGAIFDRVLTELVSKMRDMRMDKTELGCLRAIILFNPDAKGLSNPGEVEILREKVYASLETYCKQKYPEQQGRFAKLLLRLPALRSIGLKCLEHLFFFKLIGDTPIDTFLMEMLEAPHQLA
# Measurement protocol: Two-hybrid gene switch assay, luciferase reporter, TmEcR, mouse NIH3T3 cells
# Test parameters: EC50, FIG. 14A/14B, GAL4-EcR(DEF)
pEC50: −log10 of the molar value.

[
  {
    "Compound": "CC1(C)OC(=O)C=C1CC(O)C(C)(O)C1CCC2(O)C3=CC(=O)C4CC(O)C(O)CC4(C)C3CCC12C (centres unmarked) [carthamosterone]",
    "Tested target": "TmEcR (GAL4-EcR DEF with VP16-RXR partner) (Tenebrio molitor)",
    "pEC50": "< 4.48"
  },
  {
    "Compound": "CC(C)CC[C@@H](O)[C@](C)(O)[C@H]1CC[C@@]2(O)C3=CC(=O)[C@]4(O)C[C@@H](O)[C@@H](O)C[C@]4(C)[C@H]3[C@H](O)C[C@]12C [Mur A, muristerone A, reference compound]",
    "Tested target": "TmEcR (GAL4-EcR DEF with VP16-RXR partner) (Tenebrio molitor)",
    "pEC50": "~5.30"
  },
  {
    "Compound": "C[C@@H]1C(=O)O[C@H](C)[C@H]1C[C@@H](O)[C@](C)(O)[C@H]1CC[C@@]2(O)C3=CC(=O)[C@@H]4C[C@@H](O)[C@@H](O)C[C@]4(C)[C@H]3CC[C@]12C [cyasterone]",
    "Tested target": "TmEcR (GAL4-EcR DEF with VP16-RXR partner) (Tenebrio molitor)",
    "pEC50": "< 4.48"
  },
  {
    "Compound": "CCCCCC(=O)OC1CC2(C)C(C(C)(O)C(O)CCC(C)(C)O)CCC2(O)C2=CC(=O)C3CC(O)C(O)CC3(C)C21 (centres unmarked) [turkesterone-11 a -hexanoate]",
    "Tested target": "TmEcR (GAL4-EcR DEF with VP16-RXR partner) (Tenebrio molitor)",
    "pEC50": "< 4.48"
  },
  {
    "Compound": "CC(C)(O)CCC(O)C(C)(O)C1CCC2(O)C3=CC(=O)C4CC(O)CCC4(C)C3CCC12C (centres unmarked) [Compound 2-deoxy-20-hydroxyecdysone]",
    "Tested target": "TmEcR (GAL4-EcR DEF with VP16-RXR partner) (Tenebrio molitor)",
    "pEC50": "~4.70"
  }
]
